Catalogue of compounds with associated normalized growth
- PROTOCOL TEXT: chemical genetic growth profiling, strain panel (AID 1159580);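 note: tested at 20 µM; growth read once vehicle control cultures reached saturation at 30 °C; 1 = growth at the plate median or of vehicle wells; lower values mean less growth of the strain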
- ASSAY CONDITIONS: S. cerevisiae deletion strains, growth OD, locus YBR160W, strain CDC28, hits give low values
About 2,000 (36%) of roughly 5,500 compounds were called active. About 18% were inconclusive and are not listed. This is one part of the list.
Form rule: numeric answer, no unit written next to it.

{"columns": ["COMPOUND", "normalized growth"],
 "data": [
  ["COc1cc(C2SCCS2)cc(Br)c1OC(=O)NC(=O)c1c(Cl)cccc1Cl", 0.956],
  ["CCOC(=O)C(O)(c1ccc(NC(=O)c2ccc(Cl)c(Cl)c2)cc1)C(F)(F)F (stereo unspecified)", 0.996],
  ["O=C(/C=C/c1ccc(Cl)cc1)Nc1cccc(Cl)c1", 0.961],
  ["CC(C)OC(=O)Nc1cc(Cl)cc(Cl)c1", 0.981],
  ["O=C(NCc1ccc2c(c1)OCO2)c1cc2ccccc2s1", 0.873]
]}

Now look at this one.
Reported normalized growth, compound CC(C)c1cccc(C(C)C)c1OC(=O)NC(=O)c1c(Cl)cccc1Cl : ____
0.985
